Where these numbers come from: ChEMBL document CHEMBL1145801

- assay-system: M-phase inducer phosphatase 2 (Homo sapiens, UniProt P30305)
- Sequence (P30305 whole entry): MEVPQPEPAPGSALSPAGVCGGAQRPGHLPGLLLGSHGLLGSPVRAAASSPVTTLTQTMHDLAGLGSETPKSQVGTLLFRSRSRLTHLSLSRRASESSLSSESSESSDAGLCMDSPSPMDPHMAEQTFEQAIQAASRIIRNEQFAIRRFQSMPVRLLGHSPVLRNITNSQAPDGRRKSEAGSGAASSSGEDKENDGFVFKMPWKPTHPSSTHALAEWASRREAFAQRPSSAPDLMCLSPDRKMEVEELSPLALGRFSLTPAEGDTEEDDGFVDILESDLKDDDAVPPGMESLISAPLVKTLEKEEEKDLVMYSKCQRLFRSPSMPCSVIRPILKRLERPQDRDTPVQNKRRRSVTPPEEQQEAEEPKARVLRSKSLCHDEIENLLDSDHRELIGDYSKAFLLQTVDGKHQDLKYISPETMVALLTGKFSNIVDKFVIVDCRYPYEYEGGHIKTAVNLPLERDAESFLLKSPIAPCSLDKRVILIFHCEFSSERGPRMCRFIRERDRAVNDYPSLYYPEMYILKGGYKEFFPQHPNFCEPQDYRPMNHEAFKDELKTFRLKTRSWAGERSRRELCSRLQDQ
- experiment: Eight point inhibitory concentration against Cell division cycle 25B was determined
pIC50: −log10 of the molar value.
Could you label it MET if measured pIC50 is 5 or higher, and NOT MET otherwise?

Solved cases below.
1) O=C1C=C(O)C(=O)C(c2c[nH]c3c(Cc4ccccc4)cccc23)=C1O :: MET
2) CC(C)=CCC/C(C)=C/CC/C(C)=C/Cc1cccc2c(C3=C(O)C(O)=CC(=O)C3=O)c[nH]c12 :: MET
3) O=C1/C(=N/CCc2cc(Br)c(O)c(Br)c2)C=C(O)c2cccnc21 :: NOT MET
4) O=C1C=C(O)C(=O)C(c2c[nH]c3c(-c4ccccc4)cccc23)=C1O :: MET
5) Cc1ccccc1Cc1cccc2c(C3=C(O)C(O)=CC(=O)C3=O)c[nH]c12 :: MET

Item O=C1C=C(O)C(=O)C(c2c[nH]c3c2ccc2ccccc23)=C1O with pIC50 of 5 or above? NOT MET

Determine whether this compound has pIC50 no lower than 5: O=C1C=C(O)C(=O)C(c2c(C3CC3)[nH]c3ccccc23)=C1O NOT MET

Would you say O=C1C=C(O)C(=O)C(c2c[nH]c3c(OCc4ccccc4)cccc23)=C1O shows pIC50 at minimum 5? MET

###

- assay-system: M-phase inducer phosphatase 1 (Homo sapiens)
- Sequence (whole entry): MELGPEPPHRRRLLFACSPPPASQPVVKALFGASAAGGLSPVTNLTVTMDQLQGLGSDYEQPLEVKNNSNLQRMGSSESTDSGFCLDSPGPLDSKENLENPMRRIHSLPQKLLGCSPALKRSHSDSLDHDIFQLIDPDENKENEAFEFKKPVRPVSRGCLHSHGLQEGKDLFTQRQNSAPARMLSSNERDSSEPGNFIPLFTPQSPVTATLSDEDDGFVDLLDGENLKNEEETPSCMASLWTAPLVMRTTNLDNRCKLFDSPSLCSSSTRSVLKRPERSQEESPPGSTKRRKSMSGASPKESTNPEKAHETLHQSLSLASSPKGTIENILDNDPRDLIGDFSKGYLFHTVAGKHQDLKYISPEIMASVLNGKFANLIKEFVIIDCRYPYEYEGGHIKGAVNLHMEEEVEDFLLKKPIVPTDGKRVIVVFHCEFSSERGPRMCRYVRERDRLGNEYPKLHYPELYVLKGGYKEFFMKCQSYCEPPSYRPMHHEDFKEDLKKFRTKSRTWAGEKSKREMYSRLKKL
- experiment: Percent inhibition of cell division cycle 25A at 50 uM
observation-type: inhibition (%)
Note: unit % is implicit; provide only the numeric part.

Observe how each entry below is paired with its result.
1. Cc1cccc2c(C3=C(O)C(O)=CC(=O)C3=O)c[nH]c12 :: 0
2. O=C1C=C(O)C(=O)C(c2c[nH]c3c(-c4ccccc4)cccc23)=C1O :: 99
3. O=C1C=C(O)C(=O)C(c2c[nH]c3cc4c(cc23)OCO4)=C1O :: 99
4. O=C1C=C(O)C(=O)C(c2c(C3CC3)[nH]c3ccccc23)=C1O :: 22
5. Cc1ccc2c(C3=C(O)C(O)=CC(=O)C3=O)c[nH]c2c1C :: 9

Turning to the following compound.
Note down inhibition recorded for Cn1cc(C2=C(O)C(O)=CC(=O)C2=O)c2ccccc21 18
